Test system: Spodoptera litura FABRICIUS
assay explanation: antifeeding effect by the leaf disk method (antifeedant index)
Format: in vivo, Spodoptera litura FABRICIUS larvae, third or fourth instar
settings: 0.25 mg/leaf
attribute measured: FR (consumed ratio of treated leaves)
Respond numerically, and do not add a unit to the figure.

Take a look at these entries with their results.
O=C1C=CC(=O)c2c(O)cccc21 [juglone, reference compound] | 0
Cc1coc2c1C(=O)C1=C(OCC(C(C)C)C1)C2=O (centres unmarked) | 0.47
C=C(C)C1Cc2c(cc(OC)c(C(C)=O)c2O)O1 (centres unmarked) | 10.31
C=C(C)c1cc2c(o1)C(=O)c1occ(C)c1C2=O | 13.92

Record O=c1c(O)c(-c2ccc(O)c(O)c2)oc2cc(O)cc(O)c12 [quercetin, reference compound] , field FR (consumed ratio of treated leaves): 13.07

###

Reported FR (consumed ratio of treated leaves) is given for each of the following compounds.
Test system: Spodoptera litura FABRICIUS
assay explanation: antifeeding effect by the leaf disk method (antifeedant index)
Format: in vivo, Spodoptera litura FABRICIUS larvae, third or fourth instar
settings: 0.1 mg/leaf
Respond numerically, and do not add a unit to the figure.

Take a look at these entries with their results.
Cc1coc2c1C(=O)C1=C(OCC(C(C)C)C1)C2=O (centres unmarked) [scabequinone] | 1.61
O=C1C=CC(=O)c2c(O)cccc21 [juglone, reference compound] | 0
C=C(C)c1cc2c(o1)C(=O)c1occ(C)c1C2=O [cyperaquinone] | 16.18
C=C(C)C1Cc2c(cc(OC)c(C(C)=O)c2O)O1 (centres unmarked) [remirol] | 11.33

Considering O=c1c(O)c(-c2ccc(O)c(O)c2)oc2cc(O)cc(O)c12 [quercetin, reference compound] , its FR (consumed ratio of treated leaves) with Spodoptera litura FABRICIUS was recorded as 15.96
